# System: OVCAR-3 ovarian
# run-description: NCI tumour cell line growth inhibition, 48 h; in the data active means GI50 below about 0.43 µM; inactive means the rest
Output constraint: value belongs to label 1 = active, label 0 = inactive

Here's what some known entries look like.
| molecule | cat |
| --- | --- |
| O=C(c1ccccc1)N(C(=S)NCCc1ccc(Cl)cc1)c1ccc(Cl)cc1 | label 0 |
| COc1cc(Cl)cc(-c2nn(-c3cccc(NC(=O)c4cccc(C(F)(F)F)c4)c3)cc2-c2ccncc2)c1 | label 0 |
| Cn1ccnc1C(=O)/C=C/c1ccc(C(=O)Nc2ccc(F)cc2)cc1 | label 0 |
| CCOC(=O)c1cnc2c(C)cc(C)cc2c1NCCCN(C)C | label 0 |
| Fc1cc(-c2csc3n[nH]c(=S)n23)c(Cl)cc1Cl | label 0 |
| COC(=O)c1oc2c(C(C)=O)c(OCCN3CCOCC3)c(OC)cc2c1C | label 0 |
| CCOC(=O)C(=Cc1ccc(-c2ccccc2)cc1)C(=O)OCC | label 0 |
| CCOc1cc2ncc(C#N)c(Nc3ccc(F)c(Cl)c3)c2cc1NC(=O)CC1CCSS1 (centres undefined) | label 0 |
| CC(C)c1ccc(COCc2cc(CN3CCCC3)c(O)c3ncccc23)cc1 | label 1 |
| O=C1/C(=C/c2ccc(Cl)cc2Cl)CN(S(=O)(=O)c2ccccc2)C/C1=C\c1ccc(Cl)cc1Cl | label 1 |

Short answer needed: outcome of this test for COc1ccc(-c2nc(S(=O)(=O)c3ccccc3)c(S(=O)CC(=O)N3CCC(C)CC3)o2)cc1 (centres undefined) ?
label 0

Short answer needed: outcome of this test for COc1ccc2cnc(N)c(C#Cc3cc(C(=O)Nc4ccc(CN5CCN(C)CC5)c(C(F)(F)F)c4)cnc3C)c2c1 ?
label 0

Short answer needed: outcome of this test for C=C1CC[C@@H]2C(C)(C)[C@H](O)CC[C@@]2(C)[C@@H]1COc1ccc2ccc(=O)oc2c1 ?
label 0

Short answer needed: outcome of this test for c1ccc(-c2n(Cc3ccc4ccccc4n3)cc[n+]2Cc2ccc3ccccc3n2)cc1 ?
label 0
